Experiment Summary: soluble on expression in E. coli; label from the status in PepcDB or PDB records

Seq Text | soluble on expression in E. coli
MAVMKVLIVEDETAAYENLTDILTEITPDIRIMANTESVTQTVGWLQSNPAPDLIFMDIHLSDGSAFAIFDRIELETPIIFTTAYDRYAIEAFKVNSIDYLLKPVKVEDVEHALEKYSKLTRQDLLQYLSQLTLLKPAPRYKDKLLIAHKDKLLPVNIKNISYFYATGKNTYVCLKDGNRYPYSKTLEQIASSLNPEDFIRANKQFIVARDSVTDITIWFDNRLLITLDTEVPERIYVSKNKASEFKTWLVNDK | not soluble
KAAPEDVRMIMIDPKMLELSIYEGIPHLLAPVVTDMKLAANALNWCVNEMEKRYRLMSFMGVRNLAGFNQKIAEAAARGEKIGNPFSLTPDDPEPLEKLPFIVVVVDEFADLMMTAGKKIEELIARLAQKARAAGIHLILATQRPSVDVITGLIKANIPTRIAFQVSSKIDSRTILDQMGAENLLGQGDMLFLLPGTAYPQRVHGAFASDEEVHRVVEYLKQFGEPDYVDDILSGGGSEELPGIGRSGDDETDPMYDEAVSVVLKTRKASISGVQRALRIGYNRAARLIDQMEAEGIVSAPEHNGNRTILVPLDNA | not soluble
